Entry source: BindingDB's records for doi:10.7270/Q2H70D7S

TARGET DESC: Kappa-type opioid receptor (Homo sapiens, UniProt P41145)
Sequence (P41145 whole entry): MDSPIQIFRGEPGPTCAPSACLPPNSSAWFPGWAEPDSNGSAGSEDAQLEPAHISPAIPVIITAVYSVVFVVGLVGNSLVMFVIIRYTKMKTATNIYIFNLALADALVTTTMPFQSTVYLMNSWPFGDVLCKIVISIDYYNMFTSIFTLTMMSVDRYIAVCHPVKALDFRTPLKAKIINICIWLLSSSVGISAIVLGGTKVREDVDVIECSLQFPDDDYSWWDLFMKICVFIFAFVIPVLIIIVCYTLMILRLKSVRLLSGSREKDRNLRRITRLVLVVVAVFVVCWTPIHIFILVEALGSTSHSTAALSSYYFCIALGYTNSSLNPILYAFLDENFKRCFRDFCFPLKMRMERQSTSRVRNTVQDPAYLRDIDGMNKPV
RECORDED ENDPOINT: pIC50
Give only the number. pIC50 is defined as minus log10 of concentration in molar units.

Complete the entry with pIC50 for "Oc1ccc(CN=Nc2ccnc3cc(Cl)ccc23)cc1O"
5.00
